assay: Activity at HCMV US28 receptor assessed as receptor-mediated inositol phosphate response; set-up: species or system Human betaherpesvirus 5
ENDPOINT LABEL: EC50 (µM)
Kindly answer with a numeric value in µM, unit omitted.

Answered cases to consult:
>>> recorded_value("CN1CCN(C2c3ccccc3CC2Cc2ccc(Cl)cc2Cl)CC1 (stereo unspecified)")
12.1
>>> recorded_value("c1ccc(CN2C3CCC2CC(OC2c4ccccc4CCc4ccccc42)C3)cc1 (stereo unspecified)")
8.8
>>> recorded_value("COc1ccccc1CC1Cc2ccccc2C1N (stereo unspecified)")
42.7
>>> recorded_value("OC1(c2ccc(Cl)cc2)CCN(CCOC(c2ccccc2)c2ccccc2)CC1")
3.5

// sample NC(CCc1ccc(Cl)c(Cl)c1)c1ccc(Cl)c(Cl)c1 (stereo unspecified) , its EC50 was 11.7

Entry under test: NCC1(c2ccc(Cl)cc2)CCN(CCCN2Cc3ccccc3CCc3ccccc32)CC1 . Its EC50 was 7.6

Given item CN1CCN(C2Cc3ccccc3Sc3ccc(Cl)cc32)CC1 (stereo unspecified) [CLOROTEPINE] , the value recorded as its EC50 is 12.1

The molecule listed as N#CC(CCCN1CCC(O)(c2ccc(Cl)cc2)CC1)(c1ccccc1)c1ccccc1 shows EC50 equal to 6.3

Data origin: ChEMBL document CHEMBL1158527
